# IC50 per record follows
Molecular target: Acetylcholinesterase (Electrophorus electricus, UniProt O42275)
Sequence (O42275 whole entry): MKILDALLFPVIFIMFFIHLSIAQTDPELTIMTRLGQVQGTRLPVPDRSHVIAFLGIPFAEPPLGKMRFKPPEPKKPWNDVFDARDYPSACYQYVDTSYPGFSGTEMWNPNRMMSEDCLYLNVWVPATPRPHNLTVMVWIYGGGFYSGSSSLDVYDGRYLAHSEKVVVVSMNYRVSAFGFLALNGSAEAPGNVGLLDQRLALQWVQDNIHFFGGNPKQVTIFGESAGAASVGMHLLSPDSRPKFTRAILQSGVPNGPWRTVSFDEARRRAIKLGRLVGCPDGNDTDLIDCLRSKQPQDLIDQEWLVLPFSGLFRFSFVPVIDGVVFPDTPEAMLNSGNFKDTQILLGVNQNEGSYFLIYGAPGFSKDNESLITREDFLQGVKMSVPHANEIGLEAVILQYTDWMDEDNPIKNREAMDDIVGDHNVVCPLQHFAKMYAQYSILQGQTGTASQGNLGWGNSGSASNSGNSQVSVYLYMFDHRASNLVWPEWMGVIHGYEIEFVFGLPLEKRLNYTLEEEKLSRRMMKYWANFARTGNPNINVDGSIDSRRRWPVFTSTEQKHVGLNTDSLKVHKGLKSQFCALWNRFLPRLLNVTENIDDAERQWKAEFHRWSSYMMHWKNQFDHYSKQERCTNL
RECORDED METRIC: IC50 (µM)

CN(C)c1ccc(-c2cc(=O)c3ccc(OCCCCN4CCCC4)cc3o2)cc1 2.77
CN(CCCCCCOc1ccc2c(=O)cc(-c3ccc(N(C)C)cc3)oc2c1)Cc1ccccc1 7.85
CN(CCCCCCCCOc1ccc2c(=O)cc(-c3ccc(N(C)C)cc3)oc2c1)Cc1ccccc1 24
CN(C)c1ccc(-c2cc(=O)c3ccc(OCCCCCCCCCCN4CCCC4)cc3o2)cc1 2.26
CN(CCCCOc1ccc2c(=O)cc(-c3ccc(N(C)C)cc3)oc2c1)Cc1ccccc1 8.29
CN(CCCCCCCCCCOc1ccc2c(=O)cc(-c3ccc(N(C)C)cc3)oc2c1)Cc1ccccc1 11.4
CN(C)c1ccc(-c2cc(=O)c3ccc(OCCCCCCCCN4CCCCC4)cc3o2)cc1 7.88
CCN(CC)CCCCCCOc1ccc2c(=O)cc(-c3ccc(N(C)C)cc3)oc2c1 3.11
CN(C)c1ccc(-c2cc(=O)c3ccc(OCCCCCCN4CCCC4)cc3o2)cc1 9.18
CN(C)c1ccc(-c2cc(=O)c3ccc(OCCCCCCN4CCCCC4)cc3o2)cc1 6.73
CCN(CC)CCCCCCCCCCOc1ccc2c(=O)cc(-c3ccc(N(C)C)cc3)oc2c1 3.74
CN(C)c1ccc(-c2cc(=O)c3ccc(OCCCCCCCCN4CCCC4)cc3o2)cc1 1.99
CN(CCCCCCCCCCCCOc1ccc2c(=O)cc(-c3ccc(N(C)C)cc3)oc2c1)Cc1ccccc1 33.2
CN(C)c1ccc(-c2cc(=O)c3ccc(OCCCCN4CCCCC4)cc3o2)cc1 3.04
CCN(CC)CCCCCCCCOc1ccc2c(=O)cc(-c3ccc(N(C)C)cc3)oc2c1 1.83
CCN(CC)CCCCOc1ccc2c(=O)cc(-c3ccc(N(C)C)cc3)oc2c1 2.24

====

Target: Acetylcholinesterase (Electrophorus electricus, UniProt O42275)
pKi: −log10 of the molar value.
RECORDED METRIC: pKi

CCN(CC)CCCCCCCCOc1ccc2c(=O)cc(-c3ccc(N(C)C)cc3)oc2c1 6.41

====

Biological target: Cholinesterase (Equus caballus, UniProt P81908)
Sequence (P81908 whole entry): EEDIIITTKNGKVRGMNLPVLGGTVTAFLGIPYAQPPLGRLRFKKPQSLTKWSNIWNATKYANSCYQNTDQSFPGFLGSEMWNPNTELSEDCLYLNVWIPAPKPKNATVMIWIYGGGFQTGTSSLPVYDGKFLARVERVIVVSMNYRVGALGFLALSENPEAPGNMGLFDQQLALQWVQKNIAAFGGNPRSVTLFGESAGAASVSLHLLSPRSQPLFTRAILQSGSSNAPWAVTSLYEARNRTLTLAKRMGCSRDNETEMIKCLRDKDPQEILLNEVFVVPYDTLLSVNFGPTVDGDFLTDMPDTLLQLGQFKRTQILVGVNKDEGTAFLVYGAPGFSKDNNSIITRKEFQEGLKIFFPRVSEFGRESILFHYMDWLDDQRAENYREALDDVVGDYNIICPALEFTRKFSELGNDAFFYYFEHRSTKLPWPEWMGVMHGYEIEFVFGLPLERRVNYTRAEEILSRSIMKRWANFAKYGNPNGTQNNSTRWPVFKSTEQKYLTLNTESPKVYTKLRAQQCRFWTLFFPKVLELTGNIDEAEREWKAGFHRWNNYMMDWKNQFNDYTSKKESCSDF
RECORDED METRIC: IC50 (µM)

CN(C)c1ccc(-c2cc(=O)c3ccc(OCCCCN4CCCC4)cc3o2)cc1 6.14
CN(C)c1ccc(-c2cc(=O)c3ccc(OCCCCCCN4CCCC4)cc3o2)cc1 11.5
CN(C)c1ccc(-c2cc(=O)c3ccc(OCCCCCCN4CCCCC4)cc3o2)cc1 5.52
CN(C)c1ccc(-c2cc(=O)c3ccc(OCCCCCCCCCCN4CCCC4)cc3o2)cc1 0.82
CN(C)c1ccc(-c2cc(=O)c3ccc(OCCCCCCCCCCN4CCCCC4)cc3o2)cc1 2.42
CCN(CC)CCCCCCOc1ccc2c(=O)cc(-c3ccc(N(C)C)cc3)oc2c1 4.61
CN(C)c1ccc(-c2cc(=O)c3ccc(OCCCCN4CCCCC4)cc3o2)cc1 6.12
CN(C)c1ccc(-c2cc(=O)c3ccc(OCCCCCCCCN4CCCC4)cc3o2)cc1 2.6

====

Recorded measurements of Activity, one per entry
Experiment: Antioxidant activity assessed as trolox equivalent of peroxyl radical scavenging activity at 1 to 5 uM after 15 mins by oxygen radical absorbance capacity-fluorescein assay
Type: functional
RECORDED METRIC: Activity

CN(C)c1ccc(-c2cc(=O)c3ccc(OCCCCCCCCCCN4CCCC4)cc3o2)cc1 1.5
CN(C)c1ccc(-c2cc(=O)c3ccc(OCCCCCCCCN4CCCC4)cc3o2)cc1 1.5
CN(C)c1ccc(-c2cc(=O)c3ccc(OCCCCCCCCN4CCCCC4)cc3o2)cc1 1.5
CCN(CC)CCCCCCCCCCOc1ccc2c(=O)cc(-c3ccc(N(C)C)cc3)oc2c1 1.5
CN(CCCCCCCCOc1ccc2c(=O)cc(-c3ccc(N(C)C)cc3)oc2c1)Cc1ccccc1 1.5
CN(C)c1ccc(-c2cc(=O)c3ccc(OCCCCCCCCCCN4CCCCC4)cc3o2)cc1 1.5
CCN(CC)CCCCCCCCOc1ccc2c(=O)cc(-c3ccc(N(C)C)cc3)oc2c1 1.5
CN(CCCCCCCCCCOc1ccc2c(=O)cc(-c3ccc(N(C)C)cc3)oc2c1)Cc1ccccc1 1.5

====

Target: Cholinesterase (Equus caballus, UniProt P81908)
Entries and their IC50 values follow.
RECORDED METRIC: IC50 (µM)

CCN(CC)CCCCOc1ccc2c(=O)cc(-c3ccc(N(C)C)cc3)oc2c1 7.88
CN(C)c1ccc(-c2cc(=O)c3ccc(OCCCCN4CCOCC4)cc3o2)cc1 10.1
CN(C)c1ccc(-c2cc(=O)c3ccc(OCCCCCCCCN4CCCCC4)cc3o2)cc1 8.72
CCN(CC)CCCCCCCCCCOc1ccc2c(=O)cc(-c3ccc(N(C)C)cc3)oc2c1 2.31
CCN(CC)CCCCCCCCOc1ccc2c(=O)cc(-c3ccc(N(C)C)cc3)oc2c1 5.01

====

Target: Amyloid-beta precursor protein (Homo sapiens)
Test: Inhibition of amyloid beta (1 to 42) aggregation (unknown origin) at 20 uM after 48 hrs by thioflavin-T fluorescence assay relative to control
RECORDED METRIC: inhibition (%)

CN(C)c1ccc(-c2cc(=O)c3ccc(OCCCCCCCCCCN4CCCC4)cc3o2)cc1 38.6
CCN(CC)CCCCCCCCCCOc1ccc2c(=O)cc(-c3ccc(N(C)C)cc3)oc2c1 33.4
CN(C)c1ccc(-c2cc(=O)c3ccc(OCCCCCCCCN4CCCC4)cc3o2)cc1 42.1
CN(C)c1ccc(-c2cc(=O)c3ccc(OCCCCCCN4CCCC4)cc3o2)cc1 32.6
CN(C)c1ccc(-c2cc(=O)c3ccc(OCCCCCCCCN4CCCCC4)cc3o2)cc1 34.8

====

Target: Amyloid-beta precursor protein (Homo sapiens) (UniProt P05067)
Sequence (P05067 whole entry): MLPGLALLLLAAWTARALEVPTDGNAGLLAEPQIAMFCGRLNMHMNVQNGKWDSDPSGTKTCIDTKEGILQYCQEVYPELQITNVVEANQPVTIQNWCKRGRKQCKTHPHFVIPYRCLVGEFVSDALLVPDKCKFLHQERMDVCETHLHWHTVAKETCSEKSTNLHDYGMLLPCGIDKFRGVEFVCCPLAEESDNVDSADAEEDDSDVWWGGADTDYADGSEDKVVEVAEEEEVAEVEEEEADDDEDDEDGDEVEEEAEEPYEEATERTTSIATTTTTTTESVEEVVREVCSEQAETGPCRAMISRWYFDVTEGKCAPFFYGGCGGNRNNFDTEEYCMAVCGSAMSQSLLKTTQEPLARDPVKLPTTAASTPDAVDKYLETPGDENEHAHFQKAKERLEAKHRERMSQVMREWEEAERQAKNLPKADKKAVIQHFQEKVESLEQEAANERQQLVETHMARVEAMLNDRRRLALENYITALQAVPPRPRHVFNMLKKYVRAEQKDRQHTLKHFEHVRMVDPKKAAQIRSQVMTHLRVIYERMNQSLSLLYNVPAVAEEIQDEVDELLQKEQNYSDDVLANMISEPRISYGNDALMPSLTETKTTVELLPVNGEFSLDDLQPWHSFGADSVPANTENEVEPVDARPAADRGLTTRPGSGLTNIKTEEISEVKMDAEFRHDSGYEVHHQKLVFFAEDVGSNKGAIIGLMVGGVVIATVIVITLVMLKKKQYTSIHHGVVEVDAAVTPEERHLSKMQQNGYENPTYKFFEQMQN
Assay: Inhibition of amyloid beta (1 to 42) aggregation (unknown origin) at 20 uM after 48 hrs by thioflavin-T fluorescence assay relative to control
Quick reference: inhibition of the listed items.
RECORDED METRIC: inhibition (%)

CN(C)c1ccc(-c2cc(=O)c3ccc(OCCCCN4CCOCC4)cc3o2)cc1 44.7
CN(CCCCCCCCCCOc1ccc2c(=O)cc(-c3ccc(N(C)C)cc3)oc2c1)Cc1ccccc1 29.4
CCN(CC)CCCCOc1ccc2c(=O)cc(-c3ccc(N(C)C)cc3)oc2c1 33.2
CN(CCCCCCCCOc1ccc2c(=O)cc(-c3ccc(N(C)C)cc3)oc2c1)Cc1ccccc1 39.5
CN(CCCCCCOc1ccc2c(=O)cc(-c3ccc(N(C)C)cc3)oc2c1)Cc1ccccc1 46.5
CN(CCCCOc1ccc2c(=O)cc(-c3ccc(N(C)C)cc3)oc2c1)Cc1ccccc1 39.1
CN(CCCCCCCCCCCCOc1ccc2c(=O)cc(-c3ccc(N(C)C)cc3)oc2c1)Cc1ccccc1 48.1
CCN(CC)CCCCCCCCOc1ccc2c(=O)cc(-c3ccc(N(C)C)cc3)oc2c1 45.8
CCN(CC)CCCCCCOc1ccc2c(=O)cc(-c3ccc(N(C)C)cc3)oc2c1 38.1

====

Each record here notes measured inhibition.
Target: UniProt P05067
Assay: Inhibition of amyloid beta (1 to 42) aggregation (unknown origin) at 20 uM after 48 hrs by thioflavin-T fluorescence assay relative to control
RECORDED METRIC: inhibition (%)

CN(C)c1ccc(-c2cc(=O)c3ccc(OCCCCN4CCCC4)cc3o2)cc1 36.6
CN(C)c1ccc(-c2cc(=O)c3ccc(OCCCCCCCCCCN4CCCCC4)cc3o2)cc1 40.7
CN(C)c1ccc(-c2cc(=O)c3ccc(OCCCCN4CCCCC4)cc3o2)cc1 30.6
CN(C)c1ccc(-c2cc(=O)c3ccc(OCCCCCCN4CCCCC4)cc3o2)cc1 25.4
